# Experimental system: WIZ protein (HiBit-WIZ fusion protein) (Homo sapiens, UniProt O95785+Q96SW2)
# Construct: expressed in transfected cells
# Sequence (O95785 whole entry, the tested form may be a part): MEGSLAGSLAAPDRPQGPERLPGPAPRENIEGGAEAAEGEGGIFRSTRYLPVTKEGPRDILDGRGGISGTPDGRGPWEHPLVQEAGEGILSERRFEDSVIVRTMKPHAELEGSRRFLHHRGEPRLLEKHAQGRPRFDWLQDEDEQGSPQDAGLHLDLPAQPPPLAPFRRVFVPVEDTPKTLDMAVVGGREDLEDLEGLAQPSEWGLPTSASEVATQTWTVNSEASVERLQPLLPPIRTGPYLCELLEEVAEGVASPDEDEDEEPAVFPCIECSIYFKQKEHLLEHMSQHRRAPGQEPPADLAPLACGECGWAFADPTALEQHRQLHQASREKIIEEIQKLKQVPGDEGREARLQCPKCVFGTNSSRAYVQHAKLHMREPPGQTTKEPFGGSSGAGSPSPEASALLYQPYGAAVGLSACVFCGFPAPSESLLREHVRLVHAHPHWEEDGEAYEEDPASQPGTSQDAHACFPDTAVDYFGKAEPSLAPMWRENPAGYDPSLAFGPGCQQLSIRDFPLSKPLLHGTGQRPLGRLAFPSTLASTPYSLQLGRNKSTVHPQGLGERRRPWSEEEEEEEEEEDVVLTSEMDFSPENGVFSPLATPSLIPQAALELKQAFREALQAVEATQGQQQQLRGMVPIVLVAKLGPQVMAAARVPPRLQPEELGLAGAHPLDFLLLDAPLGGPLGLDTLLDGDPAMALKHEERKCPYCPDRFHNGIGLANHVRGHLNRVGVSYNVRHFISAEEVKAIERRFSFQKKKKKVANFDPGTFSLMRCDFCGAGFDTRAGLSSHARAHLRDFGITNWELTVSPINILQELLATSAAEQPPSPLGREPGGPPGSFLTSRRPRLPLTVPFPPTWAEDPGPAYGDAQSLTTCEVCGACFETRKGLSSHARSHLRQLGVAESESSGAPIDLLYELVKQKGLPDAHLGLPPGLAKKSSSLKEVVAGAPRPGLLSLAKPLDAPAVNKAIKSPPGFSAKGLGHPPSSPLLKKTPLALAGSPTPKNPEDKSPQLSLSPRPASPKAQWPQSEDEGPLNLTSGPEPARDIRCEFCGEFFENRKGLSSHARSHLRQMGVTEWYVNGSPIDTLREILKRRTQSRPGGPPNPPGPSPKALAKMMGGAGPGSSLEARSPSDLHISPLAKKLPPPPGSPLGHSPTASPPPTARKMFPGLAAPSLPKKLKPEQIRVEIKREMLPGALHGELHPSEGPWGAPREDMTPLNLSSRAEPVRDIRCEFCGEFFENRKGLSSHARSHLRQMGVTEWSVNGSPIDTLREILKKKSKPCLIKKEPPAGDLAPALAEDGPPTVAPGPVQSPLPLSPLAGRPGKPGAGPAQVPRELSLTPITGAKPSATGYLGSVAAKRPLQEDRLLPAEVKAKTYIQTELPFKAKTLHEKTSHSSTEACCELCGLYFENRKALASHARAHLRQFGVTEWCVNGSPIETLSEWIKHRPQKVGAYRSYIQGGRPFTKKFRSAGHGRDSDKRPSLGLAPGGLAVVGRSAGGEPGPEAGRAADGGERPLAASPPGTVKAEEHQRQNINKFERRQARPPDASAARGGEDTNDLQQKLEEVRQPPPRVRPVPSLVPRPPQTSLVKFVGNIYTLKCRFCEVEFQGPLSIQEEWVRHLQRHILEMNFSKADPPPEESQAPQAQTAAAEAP
# Sequence (Q96SW2 whole entry, the tested form may be a part): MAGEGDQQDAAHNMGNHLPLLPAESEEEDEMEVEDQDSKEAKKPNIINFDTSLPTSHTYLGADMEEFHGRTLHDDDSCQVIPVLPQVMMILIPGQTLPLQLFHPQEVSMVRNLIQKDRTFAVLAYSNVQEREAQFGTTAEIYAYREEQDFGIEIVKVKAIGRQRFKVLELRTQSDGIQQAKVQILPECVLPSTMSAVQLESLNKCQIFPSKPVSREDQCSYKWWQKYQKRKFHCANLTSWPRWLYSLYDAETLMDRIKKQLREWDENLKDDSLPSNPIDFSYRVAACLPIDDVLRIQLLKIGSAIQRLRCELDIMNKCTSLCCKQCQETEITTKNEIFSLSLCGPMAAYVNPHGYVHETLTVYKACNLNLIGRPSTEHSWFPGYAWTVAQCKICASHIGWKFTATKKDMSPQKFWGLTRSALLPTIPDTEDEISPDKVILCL
# Sequence (Q16531 whole entry partner, the tested form may be a part): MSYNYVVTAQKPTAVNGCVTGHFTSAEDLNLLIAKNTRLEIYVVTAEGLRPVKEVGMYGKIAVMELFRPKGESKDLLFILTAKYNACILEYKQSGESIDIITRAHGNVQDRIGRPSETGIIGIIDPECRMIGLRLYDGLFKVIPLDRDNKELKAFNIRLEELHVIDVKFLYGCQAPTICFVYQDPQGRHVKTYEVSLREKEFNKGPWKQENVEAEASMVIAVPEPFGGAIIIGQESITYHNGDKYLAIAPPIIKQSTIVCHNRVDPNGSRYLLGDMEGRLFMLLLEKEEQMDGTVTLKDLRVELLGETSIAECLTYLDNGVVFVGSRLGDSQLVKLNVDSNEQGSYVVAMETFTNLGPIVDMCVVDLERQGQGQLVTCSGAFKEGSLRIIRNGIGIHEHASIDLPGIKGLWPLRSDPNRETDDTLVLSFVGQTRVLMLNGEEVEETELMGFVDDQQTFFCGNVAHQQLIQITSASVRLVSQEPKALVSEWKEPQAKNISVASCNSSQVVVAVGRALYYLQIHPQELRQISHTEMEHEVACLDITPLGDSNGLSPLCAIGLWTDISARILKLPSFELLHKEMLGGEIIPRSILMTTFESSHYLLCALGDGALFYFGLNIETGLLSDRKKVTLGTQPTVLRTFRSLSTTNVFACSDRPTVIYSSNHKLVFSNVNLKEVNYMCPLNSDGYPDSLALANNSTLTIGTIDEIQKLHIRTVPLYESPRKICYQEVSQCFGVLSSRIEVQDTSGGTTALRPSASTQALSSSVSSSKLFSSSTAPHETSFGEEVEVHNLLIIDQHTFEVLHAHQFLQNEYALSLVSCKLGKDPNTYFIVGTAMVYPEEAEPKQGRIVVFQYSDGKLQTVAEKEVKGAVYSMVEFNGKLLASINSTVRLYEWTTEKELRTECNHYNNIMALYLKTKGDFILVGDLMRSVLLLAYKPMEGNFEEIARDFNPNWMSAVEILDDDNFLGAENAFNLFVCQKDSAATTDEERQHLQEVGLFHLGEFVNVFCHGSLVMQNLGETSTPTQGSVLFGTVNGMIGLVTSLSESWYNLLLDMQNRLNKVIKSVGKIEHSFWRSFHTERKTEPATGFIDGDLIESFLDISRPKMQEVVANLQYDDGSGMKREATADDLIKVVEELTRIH
# Test protocol: Quantification of WIZ protein levels in HiBit tag fusion protein assay (WIZ HiBit assay in 293T cells)
# Type: cell-based
# Set-up: dose or concentration left out as unconfirmed
# Test parameters: HEK-293T, read-out: WIZ Amax
Measured attribute: remaining activity

# Compound, Recorded result
records = [
    ("C[C@H]1C[C@H](Cc2ccn3ncc(N4CCC(=O)NC4=O)c3c2)CCN1CC(F)(F)C(F)F [Example 273]", "22%"),
]

According to the records, this compound O=C1CCN(c2cnn3ccc(CN4CCN(CC5CCCCC5)CC4)cc23)C(=O)N1 [Example 156] displays remaining activity of 14%

* * *

# Experimental system: WIZ protein (HiBit-WIZ fusion protein) (Homo sapiens, UniProt O95785+Q96SW2)
# Construct: expressed in transfected cells
# Test protocol: Quantification of WIZ protein levels in HiBit tag fusion protein assay (WIZ HiBit assay in 293T cells)
# Type: cell-based
# Test parameters: WIZ HiBit assay in 293T cells; 10-point, 5-fold dose response, highest concentration 25 μM, about 18 hours; read-out: WIZ AC50
Measured attribute: DC50 (nM)
Please state the figure in nM; there is no need to write the unit.

In the examples that follow, each entry is paired with its recorded DC50.
# Compound, Measured attribute, U, Recorded result
measured = [
    ("O=C1CCN(c2cnn3ccc(CC4(F)CCN(Cc5ccccc5)CC4)cc23)C(=O)N1 [Example 126]", "DC50", "nM", 290),
    ("O=C1CCN(c2cnn3ccc(CC4C[C@H]5CC[C@@H](C4)N5Cc4cccnc4)cc23)C(=O)N1 (stereo partly shown) [Example 68]", "DC50", "nM", 384),
    ("C[C@H]1CN(Cc2ccn3ncc(N4CCC(=O)NC4=O)c3c2)CCN1C1CCC1 [Example 329]", "DC50", "nM", 166),
]

According to the records, this compound CC(C)(O)CN1CCN(Cc2ccn3ncc(N4CCC(=O)NC4=O)c3c2)CC1 [Example 183] displays DC50 of 468

* * *

# Experimental system: WIZ protein (HiBit-WIZ fusion protein) (Homo sapiens, UniProt O95785+Q96SW2)
# Construct: expressed in transfected cells
# Test protocol: Quantification of WIZ protein levels in HiBit tag fusion protein assay (WIZ HiBit assay in 293T cells)
# Assay type: cell-based
# Test parameters: WIZ HiBit assay in 293T cells; 10-point, 5-fold dose response, highest concentration 25 μM, about 18 hours; read-out: WIZ AC50
# Procedure: The HiBit system from Promega was used to develop high-throughput and quantitative assays to measure changes in WIZ protein levels in response to compounds. […] The complementary fragment of Nanoluciferase (known as LgBit, from Promega), was added to the HiBit tag to form an active Nanoluciferase enzyme whose activity can be precisely measured. In this way, the levels of a fusion protein with the HiBit tag can be quantified in cell lysates. […]
Measured attribute: DC50 (µM)
Please state the figure in µM; there is no need to write the unit.

In the examples that follow, each entry is paired with its recorded DC50.
# Molecule, U, DC50
measured = [
    ("Cc1cn(-c2cnn3ccc(C[C@@H]4CCN(CC5CC5)[C@@H](C)C4)cc23)c(=O)[nH]c1=O", "µM", 0.4),
    ("C[C@H]1CC(F)(Cc2ccn3ncc(N4CCC(=O)NC4=O)c3c2)CCN1CC1CCC(F)(F)CC1 (single isomer, unassigned) [Example 309]", "µM", 0.056),
]

According to the records, this molecule O=C1CCN(c2cnn3ccc(CN4CCN5CCOC[C@@H]5C4)cc23)C(=O)N1 displays DC50 of 0.26

According to the records, this molecule O=C1CCN(c2cnn3ccc(CC4CCN(CC5CCOC5)CC4)cc23)C(=O)N1 (stereo not shown) displays DC50 of 0.028
